B1: STEAP1 (parent)
chain: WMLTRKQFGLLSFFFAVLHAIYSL

Variants of: B1
Test: protein stability index of a GFP-peptide fusion (GPS, HEK-293T) (PSI 1-6); higher = more stable;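 note: lentivirally expressed fusions sorted by FACS into six bins by GFP to DsRed ratio, PSI derived from sequencing read proportions per bin multiplied by bin number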
Conditions: c terminus: a fixed tail appended
Recorded protein stability index, one value per entry.
Enter a number only.

Q) Retrieve protein stability index measured for WMLTRKQFGLLSFFFEVLHAIYSL [A16E] and print it.
A) 1.67

---
Q) Report measured protein stability index; entry is WMLTRKQFGLLSFFIAVLHAIYSL [F15I]
A) 1.94

Q) Return protein stability index for the following variant: WMLTRKQFGLLSFFFAVLHAIYSC [L24C]
A) 2

Q) // fetch protein stability index given entry WMLTRKQYGLLSFFFAVLHAIYSL [F8Y]
A) 1.84

Q) In one line, give reported protein stability index of the entry WMLTDKQFGLLSFFFAVLHAIYSL [R5D] .
A) 1.96

Q) Consider the variant WMLTRKQFGLLSFFFAVLHATYSL [I21T] . State its measured protein stability index.
A) 1.05

Q) Kindly indicate its recorded protein stability index. Item: WMLTRKQFGLLSIFFAVLHAIYSL [F13I]
A) 2.11

Q) Tell me measured protein stability index for WMLTRKQFGLLSFFFAVLHPIYSL [A20P] please.
A) 2.51

Q) Tell me its protein stability index given WMLTRKQFGLLSFFFAVLHAVYSL [I21V] as the entry.
A) 2.18

Q) // Input: WMLTRKQFGLLSFFFAVLHTIYSL [A20T] . Output its protein stability index only.
A) 1.36

Q) State its protein stability index: WHLTRKQFGLLSFFFAVLHAIYSL [M2H]
A) 1.7

Q) Fill in reported protein stability index for this entry: WMLTRKQFGLLSFFFAVLHAIYSQ [L24Q]
A) 1.94

Q) Quick one: give measured protein stability index for WMLTRKQFGLLSFFFAVLHAPYSL [I21P]
A) 3.02

Q) Please list protein stability index recorded for the variant WMLTRKSFGLLSFFFAVLHAIYSL [Q7S]
A) 1.52

Q) Fill in reported protein stability index for this entry: WMLTRKTFGLLSFFFAVLHAIYSL [Q7T]
A) 2.17

Q) Report protein stability index, nothing else, for this variant: WMLTRKQFGLLSFFFAVLLAIYSL [H19L]
A) 2.59

Q) Identify measured protein stability index corresponding to WMLTRKQFGLLSFFFQVLHAIYSL [A16Q]
A) 1.52

Q) Output measured protein stability index for this item: WMLTRKQFGLLSFTFAVLHAIYSL [F14T]
A) 2.46

Q) // fetch protein stability index given entry WMLTRKQFGLLSFFFADLHAIYSL [V17D]
A) 5.3
